- Test Description: Binding affinity to biotinylated hairpin DNA (unknown origin) assessed as binding constant by SPR analysis
Exercise: state measured Kd for each of the compounds provided.
API: value field is a number in nM; no unit string.

Inquiry: Data request, read-out Kd, for CC(C)[C@H]1C(=O)NC[C@@H](NC(=O)c2nc3ccccc3cc2O)C(=O)N2CCCC[C@H]2C(=O)NCC(=O)N(C)CC(=O)N(C)[C@@H](c2ccccc2)C(=O)NC[C@@H](NC(=O)c2nc3ccccc3cc2O)C(=O)N2CCCC[C@H]2C(=O)NCC(=O)N(C)CC(=O)N1C
Reply text: 1000

Inquiry: Look at this compound and give its reported Kd. CC[C@H](C)[C@H]1C(=O)NC[C@@H](NC(=O)c2nc3ccccc3cc2O)C(=O)N2CCCC[C@H]2C(=O)NCC(=O)N(C)CC(=O)N(C)[C@@H]([C@@H](C)CC)C(=O)NC[C@@H](NC(=O)c2nc3ccccc3cc2O)C(=O)N2CCCC[C@H]2C(=O)NCC(=O)N(C)CC(=O)N1C
Reply text: 400

Inquiry: Which Kd is listed for CC(C)[C@H]1C(=O)NC[C@@H](NC(=O)c2nc3ccccc3cc2O)C(=O)N2CCCC[C@H]2C(=O)NCC(=O)N(C)CC(=O)N(C)[C@@H](C2CCCCC2)C(=O)NC[C@@H](NC(=O)c2nc3ccccc3cc2O)C(=O)N2CCCC[C@H]2C(=O)NCC(=O)N(C)CC(=O)N1C ?
Reply text: 400

Inquiry: Reported Kd, compound CCN1CC(=O)N(C)[C@@H](C(C)C)C(=O)NC[C@@H](NC(=O)c2nc3ccccc3cc2O)C(=O)N2CCCC[C@H]2C(=O)NCC(=O)N(CC)CC(=O)N(C)[C@@H](C(C)C)C(=O)NC[C@@H](NC(=O)c2nc3ccccc3cc2O)C(=O)N2CCCC[C@H]2C(=O)NCC1=O : ____
Reply text: 300

* * *

- System: Clupeidae
- Test Description: Binding affinity to Herring sperm DNA assessed as melting temperature by differential scanning calorimetric analysis
Endpoint Label: Tm (°C)
Form entry: value (°C) — number only.

Inquiry: Would you kindly share the measured Tm for CC(C)[C@H]1C(=O)N[C@H](C)[C@@H](NC(=O)c2nc3ccccc3cc2O)C(=O)N2CCCC[C@H]2C(=O)NCC(=O)N(C)CC(=O)N(C)[C@@H](C(C)C)C(=O)N[C@H](C)[C@@H](NC(=O)c2nc3ccccc3cc2O)C(=O)N2CCCC[C@H]2C(=O)NCC(=O)N(C)CC(=O)N1C ?
Reply text: 87

Inquiry: Need Tm, item CC(C)[C@H]1COC[C@@H](NC(=O)c2nc3ccccc3cc2O)C(=O)N2CCCC[C@H]2C(=O)NCC(=O)N(C)CC(=O)N(C)[C@@H](C(C)C)C(=O)OC[C@@H](NC(=O)c2nc3ccccc3cc2O)C(=O)N2CCCC[C@H]2C(=O)NCC(=O)N(C)CC(=O)N1C
Reply text: 96

* * *

- Test Description: Retention time of the compound by HPLC analysis
- Type: physicochemical
Exercise: state measured Retention_time for each of the molecules provided.
Report as a plain number; the unit min is understood.

Inquiry: So what does the record say about Retention_time for CCN1C(=O)CN(C)C(=O)CNC(=O)[C@@H]2CCCCN2C(=O)[C@H](NC(=O)c2nc3ccccc3cc2O)CNC(=O)[C@H](C(C)C)N(CC)C(=O)CN(C)C(=O)CNC(=O)[C@@H]2CCCCN2C(=O)[C@H](NC(=O)c2nc3ccccc3cc2O)CNC(=O)[C@@H]1C(C)C ?
Reply text: 17.9

Inquiry: Any idea what its Retention_time is? The molecule is CC[C@H](C)[C@H]1C(=O)NC[C@@H](NC(=O)c2nc3ccccc3cc2O)C(=O)N2CCCC[C@H]2C(=O)NCC(=O)N(C)CC(=O)N(C)[C@@H](C(C)C)C(=O)NC[C@@H](NC(=O)c2nc3ccccc3cc2O)C(=O)N2CCCC[C@H]2C(=O)NCC(=O)N(C)CC(=O)N1C
Reply text: 18

Inquiry: Give its Retention_time value. Item: CC(C)[C@H]1COC[C@@H](NC(=O)c2nc3ccccc3cc2O)C(=O)N2CCCC[C@H]2C(=O)NCC(=O)N(C)CC(=O)N(C)[C@@H](C(C)C)C(=O)OC[C@@H](NC(=O)c2nc3ccccc3cc2O)C(=O)N2CCCC[C@H]2C(=O)NCC(=O)N(C)CC(=O)N1C
Reply text: 20.2

Inquiry: What value of measured Retention_time is listed for CC(C)[C@H]1C(=O)NC[C@@H](NC(=O)c2nc3ccccc3cc2O)C(=O)N2CCCC[C@H]2C(=O)NCC(=O)N(C)CC(=O)N(C)C2(CC2)C(=O)NC[C@@H](NC(=O)c2nc3ccccc3cc2O)C(=O)N2CCCC[C@H]2C(=O)NCC(=O)N(C)CC(=O)N1C ?
Reply text: 15.4

Inquiry: So what does the record say about Retention_time for CC(C)[C@H]1COC[C@@H](NC(=O)c2nc3ccccc3cc2O)C(=O)N2CCCC[C@H]2C(=O)NCC(=O)N(C)CC(=O)N(C)[C@@H](C(C)C)COC[C@@H](NC(=O)c2nc3ccccc3cc2O)C(=O)N2CCCC[C@H]2C(=O)NCC(=O)N(C)CC(=O)N1C ?
Reply text: 18.2

Inquiry: Consider the molecule CC(C)[C@H]1C(=O)OC[C@@H](NC(=O)c2nc3ccccc3cc2O)C(=O)N2CCCC[C@H]2C(=O)NCC(=O)N(C)CC(=O)N(C)[C@@H](C(C)C)C(=O)OC[C@@H](NC(=O)c2nc3ccccc3cc2O)C(=O)N2CCCC[C@H]2C(=O)NCC(=O)N(C)CC(=O)N1C and give its measured Retention_time.
Reply text: 21.6

Inquiry: Query: Retention_time; subject: CC(C)[C@H]1C(=O)NC[C@@H](NC(=O)c2nc3ccccc3cc2O)C(=O)N2CCCC[C@H]2C(=O)NCC(=O)N(C)CC(=O)N2CCCC[C@H]2C(=O)NC[C@@H](NC(=O)c2nc3ccccc3cc2O)C(=O)N2CCCC[C@H]2C(=O)NCC(=O)N(C)CC(=O)N1C
Reply text: 16.4

Inquiry: Entry CC(C)[C@H]1C(=O)NC[C@@H](NC(=O)c2nc3ccccc3cc2O)C(=O)N2CCCC[C@H]2C(=O)NCC(=O)N(C)CC(=O)N2CCCCC[C@H]2C(=O)NC[C@@H](NC(=O)c2nc3ccccc3cc2O)C(=O)N2CCCC[C@H]2C(=O)NCC(=O)N(C)CC(=O)N1C has what Retention_time?
Reply text: 16.4

* * *

- Test Description: Binding affinity to biotinylated hairpin DNA (unknown origin) assessed as binding constant by SPR analysis
Endpoint Label: pKd
# pKd: negative log10 of molar concentration; output just the value

Inquiry: For the compound CC[C@H](C)[C@H]1C(=O)NC[C@@H](NC(=O)c2nc3ccccc3cc2O)C(=O)N2CCCC[C@H]2C(=O)NCC(=O)N(C)CC(=O)N(C)[C@@H](C(C)C)C(=O)NC[C@@H](NC(=O)c2nc3ccccc3cc2O)C(=O)N2CCCC[C@H]2C(=O)NCC(=O)N(C)CC(=O)N1C , what pKd is on record?
Reply text: 6.70

Inquiry: Form field: reported pKd of CC(C)[C@H]1COC[C@@H](NC(=O)c2nc3ccccc3cc2O)C(=O)N2CCCC[C@H]2C(=O)NCC(=O)N(C)CC(=O)N(C)[C@@H](C(C)C)C(=O)NC[C@@H](NC(=O)c2nc3ccccc3cc2O)C(=O)N2CCCC[C@H]2C(=O)NCC(=O)N(C)CC(=O)N1C
Reply text: 6.52

Inquiry: # lookup: pKd of CC(C)[C@H]1C(=O)NC[C@@H](NC(=O)c2nc3ccccc3cc2O)C(=O)N2CCCC[C@H]2C(=O)NCC(=O)N(C)CC(=O)N(C)[C@@H](C(C)C)C(=O)NC[C@@H](NC(=O)c2nc3ccccc3cc2O)C(=O)N2CCCC[C@H]2C(=O)NCC(=O)N(C)CC(=O)N1C
Reply text: 5.48

Inquiry: Please give the measured pKd for this compound: CC(C)[C@H]1C(=O)NC[C@@H](NC(=O)c2nc3ccccc3cc2O)C(=O)N2CCCC[C@H]2C(=O)NCC(=O)N(C)CC(=O)N(C)[C@@H](C(C)C)C(=O)OC[C@@H](NC(=O)c2nc3ccccc3cc2O)C(=O)N2CCCC[C@H]2C(=O)NCC(=O)N(C)CC(=O)N1C
Reply text: 7.10

Inquiry: If you can, please state the reported pKd value of CN1CC(=O)N2CCCCC[C@H]2C(=O)NC[C@@H](NC(=O)c2nc3ccccc3cc2O)C(=O)N2CCCC[C@H]2C(=O)NCC(=O)N(C)CC(=O)N2CCCCC[C@H]2C(=O)NC[C@@H](NC(=O)c2nc3ccccc3cc2O)C(=O)N2CCCC[C@H]2C(=O)NCC1=O .
Reply text: 6.11

Inquiry: For CC(C)[C@H]1COC[C@@H](NC(=O)c2nc3ccccc3cc2O)C(=O)N2CCCC[C@H]2C(=O)NCC(=O)N(C)CC(=O)N(C)[C@@H](C(C)C)C(=O)OC[C@@H](NC(=O)c2nc3ccccc3cc2O)C(=O)N2CCCC[C@H]2C(=O)NCC(=O)N(C)CC(=O)N1C , what is its reported pKd?
Reply text: 6.52

Inquiry: Form field: reported pKd of CC(C)[C@H]1C(=O)NC[C@@H](NC(=O)c2nc3ccccc3cc2O)C(=O)N2CCCC[C@H]2C(=O)NCC(=O)N(C)CC(=O)N2CCCCC[C@H]2C(=O)NC[C@@H](NC(=O)c2nc3ccccc3cc2O)C(=O)N2CCCC[C@H]2C(=O)NCC(=O)N(C)CC(=O)N1C
Reply text: 6.15

Inquiry: # query: pKd of entry CC[C@H](C)[C@H]1COC[C@@H](NC(=O)c2nc3ccccc3cc2O)C(=O)N2CCCC[C@H]2C(=O)NCC(=O)N(C)CC(=O)N(C)[C@@H](C(C)C)C(=O)NC[C@@H](NC(=O)c2nc3ccccc3cc2O)C(=O)N2CCCC[C@H]2C(=O)NCC(=O)N(C)CC(=O)N1C
Reply text: 7.30

Inquiry: Reported pKd for CC(C)[C@@H]1NC(=O)CN(C)C(=O)CNC(=O)[C@@H]2CCCCN2C(=O)[C@H](NC(=O)c2nc3ccccc3cc2O)CNC(=O)[C@H](C(C)C)NC(=O)CN(C)C(=O)CNC(=O)[C@@H]2CCCCN2C(=O)[C@H](NC(=O)c2nc3ccccc3cc2O)CNC1=O : what is it?
Reply text: 5.05

Inquiry: Request the reported pKd associated with CC(C)[C@H]1C(=O)NC[C@@H](NC(=O)c2nc3ccccc3cc2O)C(=O)N2CCCC[C@H]2C(=O)NCC(=O)N(C)CC(=O)N(C)C2(CCC2)C(=O)NC[C@@H](NC(=O)c2nc3ccccc3cc2O)C(=O)N2CCCC[C@H]2C(=O)NCC(=O)N(C)CC(=O)N1C
Reply text: 6.52

Inquiry: # lookup: pKd of CCN1C(=O)CN(C)C(=O)CNC(=O)[C@@H]2CCCCN2C(=O)[C@H](NC(=O)c2nc3ccccc3cc2O)CNC(=O)[C@H](C(C)C)N(CC)C(=O)CN(C)C(=O)CNC(=O)[C@@H]2CCCCN2C(=O)[C@H](NC(=O)c2nc3ccccc3cc2O)CNC(=O)[C@@H]1C(C)C
Reply text: 6.30

Inquiry: // pKd lookup, key: CN1CC(=O)N2CCCC[C@H]2COC[C@@H](NC(=O)c2nc3ccccc3cc2O)C(=O)N2CCCC[C@H]2C(=O)NCC(=O)N(C)CC(=O)N2CCCC[C@H]2C(=O)NC[C@@H](NC(=O)c2nc3ccccc3cc2O)C(=O)N2CCCC[C@H]2C(=O)NCC1=O
Reply text: 6.02

Inquiry: Look up pKd: CC(C)[C@H]1C(=O)NC[C@@H](NC(=O)c2nc3ccccc3cc2O)C(=O)N2CCCC[C@H]2C(=O)NCC(=O)N(C)CC(=O)N2CCC[C@H]2C(=O)NC[C@@H](NC(=O)c2nc3ccccc3cc2O)C(=O)N2CCCC[C@H]2C(=O)NCC(=O)N(C)CC(=O)N1C
Reply text: 5.96

Inquiry: Suppose we examine the compound C[C@H]1NC(=O)[C@@H]2CCCCN2C(=O)CN(C)C(=O)CNC(=O)[C@@H]2CCCCN2C(=O)[C@H](NC(=O)c2nc3ccccc3cc2O)[C@@H](C)NC(=O)[C@@H]2CCCCN2C(=O)CN(C)C(=O)CNC(=O)[C@@H]2CCCCN2C(=O)[C@@H]1NC(=O)c1nc2ccccc2cc1O ; what pKd value has been reported?
Reply text: 8.05

Inquiry: Which measured pKd value corresponds to CC(C)[C@H]1C(=O)NC[C@@H](NC(=O)c2nc3ccccc3cc2O)C(=O)N2CCCC[C@H]2C(=O)NCC(=O)N(C)CC(=O)N(C)C(C)(C)C(=O)NC[C@@H](NC(=O)c2nc3ccccc3cc2O)C(=O)N2CCCC[C@H]2C(=O)NCC(=O)N(C)CC(=O)N1C ?
Reply text: 6.15
